Source of measurements: paper PMC3750255

test system: Mpn wild type cells; assay: Uptake and metabolism of tritium labelled natural nucleoside and nucleobases in the presence of analogs; format: cell-based, Mycoplasma pneumoniae; conditions: 10 μM analog, 70 hours, 37°C; radioactivity in cells / total added
OBSERVABLE: [3H]-Gua Total uptake (%)
Kindly provide the numeric value in % only, without the unit symbol.

Recorded results for 4 compounds are shown here.
[
  {
    "SUBSTANCE_SMILES": "Nc1nc2nc[nH]c2c(=S)[nH]1",
    "STUDY_SYSTEM": "Mpn wild type cells",
    "OBSERVABLE": "[3H]-Gua Total uptake",
    "OBSERVED": 0.080
  },
  {
    "SUBSTANCE_SMILES": "OCCN(CCO)c1nc(N2CCCCC2)c2nc(N(CCO)CCO)nc(N3CCCCC3)c2n1",
    "STUDY_SYSTEM": "Mpn wild type cells",
    "OBSERVABLE": "[3H]-Gua Total uptake",
    "OBSERVED": 0.09
  },
  {
    "SUBSTANCE_SMILES": "O=c1[nH]c(=O)n([C@H]2C[C@H](O)[C@@H](CO)O2)cc1F",
    "STUDY_SYSTEM": "Mpn wild type cells",
    "OBSERVABLE": "[3H]-Gua Total uptake",
    "OBSERVED": 0.16
  },
  {
    "SUBSTANCE_SMILES": "O=c1[nH]c(=O)n([C@H]2C[C@H](O)[C@@H](CO)O2)cc1C(F)(F)F",
    "STUDY_SYSTEM": "Mpn wild type cells",
    "OBSERVABLE": "[3H]-Gua Total uptake",
    "OBSERVED": 0.19
  }
]

Incoming: Observed [3H]-Gua Total uptake on Mpn wild type cells for `Nc1ccn([C@@H]2O[C@H](CO)[C@@H](O)C2(F)F)c(=O)n1` , please.
Outgoing: 0.10
